For each record, write down the corresponding Ki.
- experimental system: hMT2; MT2 melatonin receptor (Homo sapiens, UniProt P49286)
- Construct: gene MTNR1B
- Sequence (P49286 1-362): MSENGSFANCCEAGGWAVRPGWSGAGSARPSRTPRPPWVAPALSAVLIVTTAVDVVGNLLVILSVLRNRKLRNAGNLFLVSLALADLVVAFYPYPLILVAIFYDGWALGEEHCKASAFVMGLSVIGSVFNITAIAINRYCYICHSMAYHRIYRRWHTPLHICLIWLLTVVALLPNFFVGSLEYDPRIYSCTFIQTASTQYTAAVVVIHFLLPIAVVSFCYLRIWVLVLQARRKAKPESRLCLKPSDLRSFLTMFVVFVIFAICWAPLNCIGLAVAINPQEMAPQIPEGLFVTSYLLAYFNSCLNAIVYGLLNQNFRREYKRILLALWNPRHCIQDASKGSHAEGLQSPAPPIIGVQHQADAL
- protocol text: […]-[…]-iodomelatonin displacement, CHO-K1 membranes
- Type: binding
- reported conditions: radioligand […]-[…]-iodomelatonin
Numbers only, in nM.

Items follow; give Ki for each.
1. COc1cc(CC(=O)OC(C)(C)C)c(Cc2cc(OC)c(OC)cc2-c2ccccc2)cc1OC [DIV6519]
2. COc1cc(Br)c(Cc2cc(OC)c(OC)cc2CC(=O)OC(C)(C)C)cc1OC [DIV0879]
3. COc1ccc(Cc2cc(OC)c(OC)cc2CC(=O)OC(C)(C)C)cc1OC [DIV4288]
4. COc1cc(F)c(Cc2cc(OC)c(OC)cc2CC(=O)OC(C)(C)C)cc1OC [DIV6518]

Result:
1: 0.49; 2: 1.4; 3: 1.4; 4: 1.4

* * *

- experimental system: hMT1; MT1 melatonin receptor (Homo sapiens, UniProt P48039)
- Construct: gene MTNR1A
- Sequence (P48039 whole entry): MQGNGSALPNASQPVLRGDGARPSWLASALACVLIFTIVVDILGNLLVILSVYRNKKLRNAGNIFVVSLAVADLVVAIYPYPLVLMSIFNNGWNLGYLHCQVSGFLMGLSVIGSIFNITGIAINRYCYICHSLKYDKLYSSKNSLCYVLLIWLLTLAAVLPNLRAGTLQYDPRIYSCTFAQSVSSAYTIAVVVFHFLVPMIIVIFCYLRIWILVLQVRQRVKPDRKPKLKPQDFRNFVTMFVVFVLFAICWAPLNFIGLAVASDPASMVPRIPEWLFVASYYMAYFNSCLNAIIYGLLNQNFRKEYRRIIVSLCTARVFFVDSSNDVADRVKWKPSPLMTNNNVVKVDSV
- protocol text: […]-[…]-iodomelatonin displacement, CHO-K1 membranes
- Type: binding
endpoint: pKi
Numbers only, as −log10 of the molar value.

Please supply pKi for each of the following items, keeping them in order.
1. COc1cc(Br)c(Cc2cc(OC)c(OC)cc2CC(=O)OC(C)(C)C)cc1OC [DIV0879]
2. COc1cc(I)c(Cc2cc(OC)c(OC)cc2CC(=O)OC(C)(C)C)cc1OC [DIV0880]

Result:
1. 5.75
2. 5.92

* * *

- experimental system: hMT1; MT1 melatonin receptor (Homo sapiens)
- Construct: gene MTNR1A
- protocol text: […]-GTPγS binding, CHO-K1 membranes
- Type: biochemical
- reported conditions: read-out: MT1 / pEC50 (converted)
endpoint: EC50

Worked examples follow.
COc1cc(CC(=O)OC(C)(C)C)c(Cc2cc(OC)c(OC)cc2-c2ccccc2)cc1OC
> 10 µM
COc1ccc(Cc2cc(OC)c(OC)cc2CC(=O)OC(C)(C)C)cc1OC
> 10 µM
COc1cc(I)c(Cc2cc(OC)c(OC)cc2CC(=O)OC(C)(C)C)cc1OC
> 10 µM
COc1cc(F)c(Cc2cc(OC)c(OC)cc2CC(=O)OC(C)(C)C)cc1OC
> 10 µM

Summary line: `COc1cc(Br)c(Cc2cc(OC)c(OC)cc2CC(=O)OC(C)(C)C)cc1OC` , hMT1; MT1 melatonin receptor (Homo sapiens), reported EC50 = > 10 µM

* * *

I'd be grateful if you could share measured pKi for these entries.
- experimental system: hMT1; MT1 melatonin receptor (Homo sapiens, UniProt P48039)
- Construct: gene MTNR1A
- protocol text: […]-[…]-iodomelatonin displacement, CHO-K1 membranes
- Type: binding
- reported conditions: radioligand […]-[…]-iodomelatonin
Numbers only, as −log10 of the molar value.

COc1cc(CC(=O)OC(C)(C)C)c(Cc2cc(OC)c(OC)cc2-c2ccccc2)cc1OC
7.36
COc1cc(F)c(Cc2cc(OC)c(OC)cc2CC(=O)OC(C)(C)C)cc1OC
6.20

Now look at this one.
Entry under test: `COc1ccc(Cc2cc(OC)c(OC)cc2CC(=O)OC(C)(C)C)cc1OC` . Its pKi was 5.89
